Data credit: paper PMC10786037

- target: T1, CIN85 SH3A domain (human)
- T1 chain: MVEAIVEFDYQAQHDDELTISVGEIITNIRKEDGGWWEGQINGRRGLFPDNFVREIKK
- assayNotes: NMR titration; 15N-labelled isolated SH3 domain titrated with synthetic 14-residue peptide; chemical shift perturbations; KD fitted, error by bootstrap resampling
- conditionSet: both partners purified
measure: Kd (µM)

INSERT INTO measurements (binder, measvalue) VALUES
  ('FKDKPIKLRPRSIE (CIN85, human, residues 219-232 of the linker between SH3B and SH3C, holding the proline-rich motif CIN85-PRM1; also called wild-type CIN85-PRM1 peptide; source: synthetic peptide) [CIN85-PRM1 peptide, wild type (residues 219-232)]', 730);
